Data provenance is PubChem BioAssay AID1224903.

test system: Chromobox protein homolog 7 (Homo sapiens)
assay text: blockers of CBX7 binding to H3K27me3 peptide – biochemical, AlphaScreen, primary screen (AID 1224903)
particulars: AlphaScreen His6-CBX7 / biotin-H3K27me3 peptide binding, stronger effect = lower value
Out of some 66,000 compounds screened, about 720 (1.1%) were called active. The entries come from a sample that favours actives as a whole.
measurement label: normalised signal (fraction of DMSO)
# output: bare number, no unit

// solved cases for normalised signal (fraction of DMSO) follow
COCCNC(=O)c1ccc2c(c1)N=C(C)c1cc(Br)ccc1S2 : 0.995
O=C(Nc1ccccc1Cl)N1CCCCC1c1cccnc1 (stereo unspecified) : 0.995
O=C(Nc1ccccc1F)c1cc2c(s1)-c1ccccc1OC2 : 1.53
CCn1cnc2cc(NCc3ccccn3)ccc21 : 0.316
Cc1ccc(OCC(=O)Nc2cccc(-c3nc4ncccc4o3)c2)cc1 : 1.02

Please examine the following record next.
Query: Item: O=C(Nc1ccc(C(F)(F)F)cc1)c1n[nH]c(=O)c2ccccc12 Test system: Chromobox protein homolog 7 (Homo sapiens) Read-out: normalised signal (fraction of DMSO) Value: ?
Reply: 1.17

###

test system: Chromobox protein homolog 7 (Homo sapiens) (UniProt O95931)
Sequence (O95931 whole entry, looked up): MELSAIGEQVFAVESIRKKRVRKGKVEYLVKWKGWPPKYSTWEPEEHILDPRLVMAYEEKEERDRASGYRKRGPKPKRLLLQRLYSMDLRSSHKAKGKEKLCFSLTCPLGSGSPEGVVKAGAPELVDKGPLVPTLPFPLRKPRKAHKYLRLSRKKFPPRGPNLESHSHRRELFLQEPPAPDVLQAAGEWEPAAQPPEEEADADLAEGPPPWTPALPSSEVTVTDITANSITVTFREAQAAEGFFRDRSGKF
assay text: blockers of CBX7 binding to H3K27me3 peptide – biochemical, AlphaScreen, primary screen (AID 1224903)
particulars: AlphaScreen His6-CBX7 / biotin-H3K27me3 peptide binding, stronger effect = lower value; measured here: z-score of CBX7 signal
The whole screen tested about 66,000 compounds, of which about 720 (1.1%) were called active. The sample as a whole holds a higher share of actives than the screen did.
# note: exactly 0.06 is not below, so it is 0 (no); use 1 (yes) for z-score strictly under it

Reference set, count: 3
CCOC(=O)CNC(=O)c1cc2c(n(-c3ccc(C)cc3)c1=O)CCCC2=O : 0 (no)
Cc1ccc(-c2nnc(SCC(=O)Nc3cc(C)on3)o2)cc1 : 0 (no)
COCCN1Cc2cccc(C(=O)NC3CCCC3)c2C1=O : 0 (no)

Query: Regarding Cc1nc2sccn2c1-c1csc(Nc2ccc(S(N)(=O)=O)cc2)n1 , kindly confirm whether its z-score is beneath 0.06.
Reply: 0 (no)

###

test system: Chromobox protein homolog 7 (Homo sapiens)
assay text: blockers of CBX7 binding to H3K27me3 peptide – biochemical, AlphaScreen, primary screen (AID 1224903)
particulars: AlphaScreen His6-CBX7 / biotin-H3K27me3 peptide binding, stronger effect = lower value; measured here: z-score of CBX7 signal
Hit rate of the full screen: of about 66,000 compounds, about 720 (1.1%) were called active. For the sample, actives were picked, then their nearest neighbours and some compounds at random.
# note: exactly -2 is not below, so it is 0 (no); use 1 (yes) for z-score strictly under it

Cc1nc2sc(C(c3cccs3)N3CCc4ccccc4C3)c(O)n2n1 (stereo not given) : 1 (yes)
Cc1ccc(C(C)C)c(OCc2nnc(NC(=O)c3ccc(Br)cc3)s2)c1 : 0 (no)
Cc1ccc(OCc2nc(C#N)c(N3CCCC3)o2)cc1 : 1 (yes)
Cc1cccc(N2CCN(C(=O)C3CCC(Cn4c(=O)[nH]c5ccsc5c4=O)CC3)CC2C)c1 (stereo not given) : 0 (no)
O=C(Nc1ccccc1C(=O)Nc1ccccc1)c1cccc(S(=O)(=O)N2CCCCC2)c1 : 1 (yes)

We now examine a further compound.
Query: Regarding COc1ccccc1N1CCN(C(c2cccs2)C(C)NC(=O)c2ccc3c(c2)OCO3)CC1 (stereo not given) , kindly confirm whether its z-score is beneath -2.
Reply: 1 (yes)

###

test system: Chromobox protein homolog 7 (Homo sapiens)
assay text: blockers of CBX7 binding to H3K27me3 peptide – biochemical, AlphaScreen, primary screen (AID 1224903)
particulars: AlphaScreen His6-CBX7 / biotin-H3K27me3 peptide binding, stronger effect = lower value
Hit rate of the full screen: of about 66,000 compounds, about 720 (1.1%) were called active. For the sample, actives were picked, then their nearest neighbours and some compounds at random.
# note: exactly 1 is not below, so it is 0.0; use 1.0 for normalised signal (fraction of DMSO) strictly under it

Reference set, count: 4
COc1ccc(OC)c(-c2nnc(SCC(=O)Nc3cc(C)on3)o2)c1 : 1.0
COc1ccc(-c2nc(-c3ccc(F)cc3)c(-c3ccc(F)cc3)[nH]2)cc1OC : 1.0
O=C(Cn1nc(-c2ccccc2)c2cc(Cl)ccc21)NCc1ccccc1 : 0.0
Cc1cc(NC(=O)CSc2nnc(-c3ccc(Cl)s3)o2)no1 : 0.0

We now examine a further compound.
Query: Regarding Cc1ccc(CNC(=O)c2c(-c3ccccc3)noc2C)cc1 , kindly confirm whether its normalised signal (fraction of DMSO) is beneath 1.
Reply: 0.0

###

test system: Chromobox protein homolog 7 (Homo sapiens) (UniProt O95931)
assay text: blockers of CBX7 binding to H3K27me3 peptide – biochemical, AlphaScreen, primary screen (AID 1224903)
particulars: AlphaScreen His6-CBX7 / biotin-H3K27me3 peptide binding, stronger effect = lower value; measured here: z-score of CBX7 signal
About 720 (1.1%) of roughly 66,000 compounds were called active. This is one part of a sample in which actives are shown more often than they occur.
measurement label: z-score
# output: bare number, no unit

Query: Item: Cc1ccc(-c2nc(-c3ccccc3Cl)no2)cc1 Test system: Chromobox protein homolog 7 (Homo sapiens) (UniProt O95931) Read-out: z-score Value: ?
Reply: 1.59

###

test system: Chromobox protein homolog 7 (Homo sapiens)
assay text: blockers of CBX7 binding to H3K27me3 peptide – biochemical, AlphaScreen, primary screen (AID 1224903)
particulars: AlphaScreen His6-CBX7 / biotin-H3K27me3 peptide binding, stronger effect = lower value; measured here: z-score of CBX7 signal
Among all 66,000 compounds or so, about 720 (1.1%) were called active. What follows is part of a selection rich in actives, with near analogues and random picks from the rest.
Listed next: entries and their corresponding z-score.

Cc1ccc(OCC(=O)Nc2ccc(S(=O)(=O)Nc3nccs3)cc2)c(Br)c1 : 0.0983
CCOc1ccc(-c2nnc(Nc3ccc(C(N)=O)cc3)c3ccccc23)cc1 : -2.64
CCC(CO)NCC(O)COCc1ccc(Cl)cc1 (stereo not given) : 0.823
COc1ccc(C2CC(=O)N(CC(=O)Nc3ccc(C)c(Cl)c3)c3ccccc3S2)cc1 (stereo not given) : -1.15
Cc1ccccc1Cn1c(CCNC(=O)C(C)(C)C)nc2ccccc21 : 1.79

Please examine the following record next.
Query: Looking for the measured z-score of COc1ccc(CCNC(=O)c2cccc3c2C(=O)N(Cc2cccnc2)C3)cc1OC , can you help?
Reply: 0.0167

###

test system: Chromobox protein homolog 7 (Homo sapiens)
assay text: blockers of CBX7 binding to H3K27me3 peptide – biochemical, AlphaScreen, primary screen (AID 1224903)
particulars: AlphaScreen His6-CBX7 / biotin-H3K27me3 peptide binding, stronger effect = lower value; measured here: z-score of CBX7 signal
Out of some 66,000 compounds screened, about 720 (1.1%) were called active. This excerpt belongs to a sample that is enriched for actives.
measurement label: z-score

// solved cases for z-score follow
CC1(C)C=c2c(nnc3ncnn23)=C(O)C1 : -15.7
COc1ccc(NC2CC(=O)N(Cc3ccccc3)C2=O)cc1 (stereo not given) : 0.412
Cc1ccn2c(NC3CCCCC3)c(-c3cccs3)nc2c1 : -1.46
Cc1cc(C)cc(OC(C)C(=O)N(Cc2ccc(Cl)cc2)C2CCS(=O)(=O)C2)c1 (stereo not given) : -0.282
Cc1cc(C)cc(NS(=O)(=O)c2cnc[nH]2)c1 : 0.0588
O=C(Nc1ccc2c(c1)OCO2)c1cnc2ccccn2c1=O : -0.351
Cc1ccc2oc(-c3cc(NC(=O)c4cccc(F)c4)ccc3Cl)nc2c1 : -0.255
Cc1ccc2c(c1)C(c1ccc(F)cc1)N(C(=O)c1ccc(S(=O)(=O)N3CCCC3)cc1)CC(=O)N2 (stereo not given) : -1.94

Please examine the following record next.
Query: Looking for the measured z-score of COc1ccc(CCNC(=O)c2cn(-c3ccc(Cl)cc3)c(=O)c3ccccc23)cc1OC , can you help?
Reply: 0.92

###

test system: Chromobox protein homolog 7 (Homo sapiens) (UniProt O95931)
assay text: blockers of CBX7 binding to H3K27me3 peptide – biochemical, AlphaScreen, primary screen (AID 1224903)
particulars: AlphaScreen His6-CBX7 / biotin-H3K27me3 peptide binding, stronger effect = lower value
Screen size: about 66,000 compounds; about 720 (1.1%) were called active. What follows is part of a selection rich in actives, with near analogues and random picks from the rest.
Listed next: entries and their corresponding normalised signal (fraction of DMSO).
# output: bare number, no unit

CCOC(=O)c1cccc(NC(=O)Cn2nc(Cc3ccncc3)c3ccccc3c2=O)c1 : 0.996
COc1ccccc1NC(=O)Cn1ccc2ccccc2c1=O : 0.981
CC(=O)Oc1ccc(C2CC(=O)Nc3cc4c(cc32)OCO4)cc1 (stereo not drawn) : 0.988
CC(=O)N1CCC(N(C(=O)Nc2ccc(Cl)cc2)C2CCCCCC2)CC1 : 1.02
CCOC(=O)c1cnc2c(C)cc(C)cc2c1Nc1ccc(N2CCOCC2)cc1 : 0.35
CCOC(=O)c1cnc2c(C)cc(C)cc2c1Nc1cccc(OC)c1 : 1.03
COc1ccc(-c2[nH]c(-c3ccc(C)cc3)nc2SCC(=O)Nc2ccc(F)cc2)cc1OC : 0.756
CCCNC(=O)c1nn2c(C(F)(F)F)cc(-c3ccco3)nc2c1Br : 1.09

Query: Looking for the measured normalised signal (fraction of DMSO) of CN(CC(=O)NCCc1ccccc1)S(=O)(=O)c1cnc[nH]1 , can you help?
Reply: 1.26

Query: Field entry: Cc1cc(NCC(C)c2ccccc2)n2ncnc2n1 (stereo not drawn)
Reply: 1.03

Query: Field entry: COc1ccc(N2CC(C(=O)Nc3ccc(C(C)C)cc3)CC2=O)cc1 (stereo not drawn)
Reply: 1.06

Query: Field entry: COc1ccc(CCNC(=O)CSc2nc3ccccc3nc2Cc2ccc(F)cc2)cc1OC
Reply: 0.48

Query: Field entry: COc1cccc(-c2nc(CS(=O)(=O)CC(=O)NCCCN(CC(C)C)CC(C)C)c(C)o2)c1
Reply: 1.42
